System: SNB-19 CNS
Experiment: NCI tumour cell line growth inhibition, 48 h
property: TGI

INPUT: // returns reported TGI for input CN(C(=O)C12C3C4C1C1C2C3C41C(=O)N(C)C(C)(C)C)C(C)(C)C (stereo unspecified)
OUTPUT: > 50 µM

INPUT: Now consider Nc1nc2c(c(=O)[nH]1)N=C(COP(=O)(O)OP(=O)(O)O)CN2 .
OUTPUT: > 100 µM

INPUT: Now consider O=C(/C=C/c1cc(F)ccc1F)OCCc1ccccc1 .
OUTPUT: > 100 µM

INPUT: Now consider O=C1/C(=C/c2ccc3c(c2)OCO3)Sc2scc(-c3ccc(O)c(O)c3)[n+]21 .
OUTPUT: 36.2 µM

INPUT: Now consider CCOC(=O)c1c(C(F)(F)F)n([O-])c2ccc(Cl)cc2[n+]1=O .
OUTPUT: 19.2 µM

INPUT: Now consider O=C1/C(=C\c2ccc([N+](=O)[O-])cc2)CS(=O)(=O)C/C1=C/c1ccc([N+](=O)[O-])cc1 .
OUTPUT: 22.2 µM

INPUT: Now consider COc1cc(-c2ccc(Nc3ccccc3C(=O)O)c(OC)c2)ccc1Nc1ccccc1C(=O)O .
OUTPUT: > 100 µM

INPUT: Now consider CNC(=O)C1CCC(=O)N1CN(C(C)=O)c1ccccc1 (stereo unspecified) .
OUTPUT: > 100 µM

INPUT: Now consider CC(C)(C)OC(=O)N(CCCCNC(=O)c1ccccc1)CCCNC(=O)c1ccccc1 .
OUTPUT: > 100 µM

INPUT: Now consider CCOC(=O)C/C(N)=C(\C#N)C(=O)OCC .
OUTPUT: > 100 µM

INPUT: Now consider CC(=O)N1N=C(c2ccccc2Nc2ccccc2C2=NN(C(C)=O)C(c3ccccc3)O2)OC1c1ccccc1 (stereo unspecified) .
OUTPUT: > 100 µM

###

Tested on: NCI-H522 lung
Assay: NCI tumour cell line growth inhibition, 48 h
Kindly supply the reported GI50 values for the records listed here.

INPUT: // returns reported GI50 for input CC(N)CN.CC(N)CN.[Cl-].[O]=[Os+2]=[O] (stereo not given)
OUTPUT: 30.9 µM

INPUT: Now consider Cc1ccc(C2NC(=S)N3C(c4ccc(C)cc4)NC(=S)N23)cc1 (stereo not given) .
OUTPUT: 1.94 µM

INPUT: Now consider C/C(=C\CCc1ccsc1)CC/C=C(\C)CCCN1CCN(CCO)CC1 .
OUTPUT: 1.91 µM

INPUT: Now consider Nc1cccc2c1CN(C1CCC(=O)NC1=O)C2=O (stereo not given) .
OUTPUT: > 100 µM

INPUT: Now consider COC(=O)c1c2c(c(C)[n+]([O-])c1C)C(=O)C=C(NCc1ccc(Br)cc1)C2=O .
OUTPUT: 1.23 µM

INPUT: Now consider C[C@@H](Oc1cc(-c2cnn(C3CC4(CNC4)C3)c2)cnc1N)c1c(Cl)ccc(F)c1Cl .
OUTPUT: 10.2 µM

INPUT: Now consider COc1ccc(Oc2nc(Nc3ccc(N4CCOCC4)cc3)ncc2NC(=O)Nc2cc(OC)cc(OC)c2)cc1 .
OUTPUT: 3.94 µM

INPUT: Now consider NC(Cc1ccc(O)cc1)C(=O)N/N=C/c1ccc(N(CCCl)CCCl)cc1 (stereo not given) .
OUTPUT: 25.1 µM

INPUT: Now consider Oc1[nH]c2ccc(Cl)cc2c1/C=c1/ccc2c(c1)N=C(c1ccc(C(F)(F)F)cc1)N=2 .
OUTPUT: 1.66 µM

INPUT: Now consider O=C(CCCCCNC1=CC(=O)c2ccccc2C1=O)NCCC[Te]c1ccccc1 .
OUTPUT: 1.75 µM
